Attribution: patent US20230115907A1

measurement.protocol: In vivo pharmacokinetics after intragastric administration in mice
reported.conditions: male, ICR, mouse, po, single intragastric administration, 20 mg/kg, plasma
Measured AUC(0-inf), listed per entry.
Respond numerically; units are ng·h/mL and should not be typed.

| record.smiles | quantity.unit | AUC(0-inf) |
| --- | --- | --- |
| Cc1nc(NC2CCN(C(=O)O[C@H]3CCN(C(=O)/C=C/CN(C)C)C3)CC2)n2ncc(C(C)C)c2n1 | ng·h/mL | 6380 |

If you can, please state the reported AUC(0-inf) value of Cc1nc(NC2CCN(C(=O)O[C@H]3CCN(C(=O)/C=C/CN(C)C)C3)CC2)c2ncc(C(C)C)n2n1 .
3150
